Source: patent US20120164137A1

- target_desc: T1, Recombinant human folate receptor alpha (FRA) (human, UniProt P15328 25-234)
- T1 construct: Immobilised on a CM5 chip by amine coupling; also called FR-alpha
- test_protocol: SPR, FRA on CM5 chip, parallel line analysis; reference standard = 100%
readout_kind: Measured Potency (%)
Give a bare numeral; the unit % is implied.

These recorded examples may help you get a feel for the data.
MORAb-003 anti-FRA antibody, lot NB809-69 (10 mM Na butyrate; harvested 13 days after initiation of culture) (antibody, human IgG1, kappa, V domains shown, N-linked neutral glycans at Asn299 in SEQ ID NO: 5) VH: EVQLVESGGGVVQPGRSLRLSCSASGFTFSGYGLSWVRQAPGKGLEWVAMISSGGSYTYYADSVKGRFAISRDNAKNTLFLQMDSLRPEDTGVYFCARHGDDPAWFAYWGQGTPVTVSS VL: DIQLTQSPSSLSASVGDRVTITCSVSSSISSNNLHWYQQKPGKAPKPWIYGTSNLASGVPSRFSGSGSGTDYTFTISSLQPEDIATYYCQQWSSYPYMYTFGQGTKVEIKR: 49.3
MORAb-003 anti-FRA antibody, lot NB859-28 (low DO; harvested 14 days after initiation of culture) (antibody, human IgG1, kappa, V domains shown, N-linked neutral glycans at Asn299 in SEQ ID NO: 5, also called low DO (round 3)) VH: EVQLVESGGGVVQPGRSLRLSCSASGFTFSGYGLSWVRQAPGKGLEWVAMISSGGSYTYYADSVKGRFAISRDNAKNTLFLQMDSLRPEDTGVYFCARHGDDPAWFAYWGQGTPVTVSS VL: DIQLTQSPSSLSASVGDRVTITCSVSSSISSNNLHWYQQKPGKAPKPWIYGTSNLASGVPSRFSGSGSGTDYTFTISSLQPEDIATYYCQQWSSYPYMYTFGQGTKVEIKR: 44.5

Given the entry MORAb-003 anti-FRA antibody, lot NB810-13 (high osmolarity; harvested 14 days after initiation of culture) (antibody, human IgG1, kappa, V domains shown, N-linked neutral glycans at Asn299 in SEQ ID NO: 5) VH: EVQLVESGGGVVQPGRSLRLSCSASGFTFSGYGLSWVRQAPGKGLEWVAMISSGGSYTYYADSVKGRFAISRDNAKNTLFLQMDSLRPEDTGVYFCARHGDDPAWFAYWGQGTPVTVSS VL: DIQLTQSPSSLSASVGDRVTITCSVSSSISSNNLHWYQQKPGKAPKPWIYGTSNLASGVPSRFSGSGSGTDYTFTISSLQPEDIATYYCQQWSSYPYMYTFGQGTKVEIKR , report its measured Measured Potency (%). 72.6
